- measured.target: Dopamine receptor (Bos taurus) (UniProt Q95136+P20288)
- method.notes: Compound was tested for enhancement of the binding of [3H]ADTN to dopamine receptors at concentration of 1 nM
- Format: protein assay
Square brackets hold non-standard residues; d marks the D form. Peptide text beside a SMILES is read from it. pGlu = O=C1CC[C@@H](C(=O)O)N1; Pip = O=C(O)[C@@H]1CCCCN1; Thz = O=C(O)[C@@H]1CSCN1; Aze = O=C(O)[C@@H]1CCN1
Would you please tag the item met when its Enhancement is 10% or above, and not met when it is below?

Request: Is it the case that CC(C)C[C@H](NC(=O)[C@@H]1CCCCN1)C(=O)NCC(N)=O (H-[Pip]-Leu-Gly-NH2) has Enhancement reaching or exceeding 10%?
Result: met

Request: // inclusive: Enhancement at least 10%? input: CC(C)C[C@H](NC(=O)[C@@H]1CCCN1)C(=O)NCC(N)=O (stereo in doubt; 1)
Result: met

Request: Is the recorded value of Enhancement equal to or greater than 10% for this compound? CC(C)C[C@H](NC(=O)[C@@H]1CCN1)C(=O)NCC(N)=O (H-[Aze]-Leu-Gly-NH2)
Result: met

Request: Is the recorded value of Enhancement equal to or greater than 10% for this compound? CC(C)C[C@H](NC(=O)[C@@H]1CCCN1)C(=O)NCC(N)=O (stereo in doubt; 2)
Result: met

Request: Given `CC(C)C[C@H](NC(=O)[C@H]1C=CCN1)C(=O)NCC(N)=O` , state whether its Enhancement is at least 10%.
Result: not met

Request: Quick check, Enhancement >= 10%? CC(C)C[C@H](NC(=O)[C@@H]1CCC(=O)N1)C(=O)NCC(N)=O ([pGlu]-Leu-Gly-NH2)
Result: met

Request: Answer whether Enhancement of `CC(C)C[C@H](NC(=O)[C@@H]1C=CCN1)C(=O)NCC(N)=O` is greater than or equal to 10%.
Result: met

Request: Enhancement >= 10% for CC(C)C[C@H](NC(=O)[C@@H]1CSCN1)C(=O)NCC(N)=O (H-[Thz]-Leu-Gly-NH2) ?
Result: not met

Data provenance is ChEMBL document CHEMBL1123255.
